# System: wheat (Triticum aestivum L.): TRZAX
# assay-explanation: Test Example 1 pre-emergence herbicidal activity, TRZAX
# Format: in vivo
# condition-details: Rate 63 g a.i./ha, visually observed 20th to 23rd day after application
test-readout: Pre-emergence Herbicidal Activity TRZAX (growth controlling degree)
// unit must come after the numeric part

Some compounds with recorded Pre-emergence Herbicidal Activity TRZAX (growth controlling degree):
Query block: Given the compound COc1c(Cl)cc(F)c(-c2nn(C)c(OC(F)F)c2Cl)c1NC(=O)C=Cc1cccc(C)c1 [Compound 1-254] , what is its reported Pre-emergence Herbicidal Activity TRZAX (growth controlling degree)?
Result block: 0%

Query block: Given the compound COc1c(Cl)cc(F)c(-c2nn(C)c(OC(F)F)c2Cl)c1NC(=O)c1ccc(C#N)cc1 [Compound 1-32] , what is its reported Pre-emergence Herbicidal Activity TRZAX (growth controlling degree)?
Result block: 10%

Query block: Given the compound C#CCN(C=O)c1c(OC(F)F)c(Cl)cc(F)c1-c1nn(C)c(OC(F)F)c1Cl [Compound 1-85] , what is its reported Pre-emergence Herbicidal Activity TRZAX (growth controlling degree)?
Result block: 0%

Query block: Given the compound COc1c(Cl)cc(F)c(-c2nn(C)c(OC(F)F)c2Cl)c1N(C)C=O [Compound 1-6] , what is its reported Pre-emergence Herbicidal Activity TRZAX (growth controlling degree)?
Result block: 20%

Query block: Given the compound COc1c(Cl)cc(F)c(-c2nn(C)c(OC(F)F)c2Cl)c1NC(=O)C=Cc1cccc(F)c1 [Compound 1-257] , what is its reported Pre-emergence Herbicidal Activity TRZAX (growth controlling degree)?
Result block: 0%

Query block: Given the compound COc1c(Cl)cc(F)c(-c2nn(C)c(OC(F)F)c2Cl)c1NC(=O)OCC1CCCCC1 [Compound 1-73] , what is its reported Pre-emergence Herbicidal Activity TRZAX (growth controlling degree)?
Result block: 0%

List Pre-emergence Herbicidal Activity TRZAX (growth controlling degree) for every entry below, keeping the order given.
1. COc1c(Cl)cc(F)c(-c2nn(C)c(OC(F)F)c2Cl)c1NC(=O)OCC(C)C [Compound 1-64]
2. COc1c(Cl)cc(F)c(-c2nn(C)c(OC(F)F)c2Cl)c1NC(=O)COc1ccc(Cl)cc1 [Compound 1-35]
3. COc1c(Cl)cc(F)c(-c2nn(C)c(OC(F)F)c2Cl)c1NC(=O)C(C)Cc1ccccc1 (stereo not shown) [Compound 1-268]
4. COc1c(Cl)cc(F)c(-c2nn(C)c(OC(F)F)c2Cl)c1NC(=O)/C=C/c1ccccc1 [Compound 1-31]
5. COc1c(Cl)cc(F)c(-c2nn(C)c(OC(F)F)c2Cl)c1NC(=O)C1CC1 [Compound 1-264]

Result block:
["10%", "20%", "20%", "10%", "20%"]

----------
Could you please report measured growth controlling degree, GLXMA for the items listed next?
# Tested on: soybean (Glycine max Merr.), GLXMA
# assay-explanation: Test Example 2 post-emergence (foliage treatment) herbicidal activity, GLXMA
# Format: in vivo
# condition-details: 63 g a.i./ha
# Description: Upland field soil was put into a 1/170,000 ha pot, and seeds of various plants were sown. […] On the 20th to 23rd day after the application of the herbicide, the growth of the respective plants was visually observed, and the herbicidal effects were evaluated by growth controlling degrees (%) ranging from 0 (equivalent to the untreated control) to 100 (complete kill), whereby the results shown in Table 5, were obtained. […]
Answers are plain numbers, in %.

Query block: Given the molecule "COc1c(Cl)cc(F)c(-c2nn(C)c(OC(F)F)c2Cl)c1NC(=O)C=Cc1cccc(F)c1" , what is its reported growth controlling degree, GLXMA?
Result block: 40

Query block: Given the molecule "COc1c(Cl)cc(F)c(-c2nn(C)c(OC(F)F)c2Cl)c1NC(=O)OCc1ccccn1" , what is its reported growth controlling degree, GLXMA?
Result block: 95

Query block: Given the molecule "COc1c(Cl)cc(F)c(-c2nn(C)c(OC(F)F)c2Cl)c1NC(=O)c1ccc(C#N)cc1" , what is its reported growth controlling degree, GLXMA?
Result block: 80

Query block: Given the molecule "COc1c(Cl)cc(F)c(-c2nn(C)c(OC(F)F)c2Cl)c1NC(=O)OCCN(C)C" , what is its reported growth controlling degree, GLXMA?
Result block: 60

Query block: Given the molecule "Cn1nc(-c2c(F)cc(Cl)c(OC(F)F)c2NS(C)(=O)=O)c(Cl)c1OC(F)F" , what is its reported growth controlling degree, GLXMA?
Result block: 50

Query block: Given the molecule "C#CCN(C=O)c1c(OC(F)F)c(Cl)cc(F)c1-c1nn(C)c(OC(F)F)c1Cl" , what is its reported growth controlling degree, GLXMA?
Result block: 60

Query block: Given the molecule "CCOC(=O)CN(C=O)c1c(OC)c(Cl)cc(F)c1-c1nn(C)c(OC(F)F)c1Cl" , what is its reported growth controlling degree, GLXMA?
Result block: 60

Then there is this molecule:
Query block: Given the molecule "COc1c(Cl)cc(F)c(-c2nn(C)c(OC(F)F)c2Cl)c1NC(=O)/C=C/c1ccccc1" , what is its reported growth controlling degree, GLXMA?
Result block: 60

----------
Could you please report measured growth controlling degree, GLXMA for the items listed next?
# Tested on: soybean (Glycine max Merr.), GLXMA
# assay-explanation: Test Example 2 post-emergence (foliage treatment) herbicidal activity, GLXMA
# Assay type: in vivo
# condition-details: 63 g a.i./ha
Answers are plain numbers, in %.

Query block: Given the molecule COC(=O)Nc1c(OC)c(Cl)cc(F)c1-c1nn(C)c(OC(F)F)c1Cl [Compound 1-62] , what is its reported growth controlling degree, GLXMA?
Result block: 80

Query block: Given the molecule COc1c(Cl)cc(F)c(-c2nn(C)c(OC(F)F)c2Cl)c1NC(=O)C(C)Oc1ccccc1 (stereo not shown) [Compound 1-33] , what is its reported growth controlling degree, GLXMA?
Result block: 60

Query block: Given the molecule COc1ccc(OC(=O)Nc2c(OC)c(Cl)cc(F)c2-c2nn(C)c(OC(F)F)c2Cl)cc1 [Compound 1-57] , what is its reported growth controlling degree, GLXMA?
Result block: 90

Query block: Given the molecule COc1c(Cl)cc(F)c(-c2nn(C)c(OC(F)F)c2Cl)c1NC(=O)c1ccc(F)cc1 [Compound 1-263] , what is its reported growth controlling degree, GLXMA?
Result block: 50

Query block: Given the molecule COc1c(Cl)cc(F)c(-c2nn(C)c(OC(F)F)c2Cl)c1NC(=O)C=Cc1ccccc1F [Compound 1-256] , what is its reported growth controlling degree, GLXMA?
Result block: 60

Query block: Given the molecule COc1c(Cl)cc(F)c(-c2nn(C)c(OC(F)F)c2Cl)c1NC(=O)CCC1CCCCC1 [Compound 1-259] , what is its reported growth controlling degree, GLXMA?
Result block: 10

Query block: Given the molecule COc1c(Cl)cc(F)c(-c2nn(C)c(OC(F)F)c2Cl)c1N(C=O)CC(=O)c1ccccc1 [Compound 1-12] , what is its reported growth controlling degree, GLXMA?
Result block: 40

Query block: Given the molecule CNc1c(OC)c(Cl)cc(F)c1-c1nn(C)c(OC(F)F)c1Cl [Compound 1-58] , what is its reported growth controlling degree, GLXMA?
Result block: 95

Query block: Given the molecule COc1c(Cl)cc(F)c(-c2nn(C)c(OC(F)F)c2Cl)c1NC(=O)C(C)(C)OC(C)=O [Compound 1-44] , what is its reported growth controlling degree, GLXMA?
Result block: 40

Query block: Given the molecule COc1c(Cl)cc(F)c(-c2nn(C)c(OC(F)F)c2Cl)c1NC(=O)C(C)(C)Oc1ccccc1 [Compound 1-38] , what is its reported growth controlling degree, GLXMA?
Result block: 30

List growth controlling degree, GLXMA for every entry below, keeping the order given.
1. COc1c(Cl)cc(F)c(-c2nn(C)c(OC(F)F)c2Cl)c1NC(=O)Oc1ccccc1 [Compound 1-67]
2. COc1c(Cl)cc(F)c(-c2nn(C)c(OC(F)F)c2Cl)c1N(C=O)CC(C)=O [Compound 1-14]

Result block:
1: 70; 2: 60

List growth controlling degree, GLXMA for every entry below, keeping the order given.
1. COc1c(Cl)cc(F)c(-c2nn(C)c(OC(F)F)c2Cl)c1NC(=O)c1cccc(C(F)(F)F)c1 [Compound 1-262]
2. COc1c(Cl)cc(F)c(-c2nn(C)c(OC(F)F)c2Cl)c1NC(=O)C=C(C)C [Compound 1-9]
3. COc1c(Cl)cc(F)c(-c2nn(C)c(OC(F)F)c2Cl)c1NC=O [Compound 1-4]
4. COc1c(Cl)cc(F)c(-c2nn(C)c(OC(F)F)c2Cl)c1NC(=O)c1ccccc1C [Compound 1-24]

Result block:
1: 50; 2: 90; 3: 80; 4: 100

----------
# Test system: rice (Oryza sativa L.), ORYSA
# assay-explanation: Test Example 2 post-emergence (foliage treatment) herbicidal activity, ORYSA
# Assay type: in vivo
# condition-details: 63 g a.i./ha
test-readout: growth controlling degree, ORYSA (%)
Give bare numbers, in %.

Some compounds with recorded growth controlling degree, ORYSA:
Query block: Given the compound "COc1c(Cl)cc(F)c(-c2nn(C)c(OC(F)F)c2Cl)c1NC(C)C" , what is its reported growth controlling degree, ORYSA?
Result block: 40

Query block: Given the compound "CNc1c(OC)c(Cl)cc(F)c1-c1nn(C)c(OC(F)F)c1Cl" , what is its reported growth controlling degree, ORYSA?
Result block: 70

List growth controlling degree, ORYSA for every entry below, keeping the order given.
1. Cn1nc(-c2c(F)cc(Cl)c(OC(F)F)c2N(C=O)Cc2ccccc2)c(Cl)c1OC(F)F
2. COc1c(Cl)cc(F)c(-c2nn(C)c(OC(F)F)c2Cl)c1NC(=O)c1cccc(Br)c1

Result block:
1. 0
2. 80
